From: patent US20200347127A1

Kindly supply the reported koff values for the records listed here.
# study_system: T1, recombinant human IL-17A (human, UniProt Q16552 24-155)
# T1 construct: Bought recombinant protein (Peprotech AF-200-17); also called Peprotech AF-200-17
# T1 sequence (Q16552 24-155): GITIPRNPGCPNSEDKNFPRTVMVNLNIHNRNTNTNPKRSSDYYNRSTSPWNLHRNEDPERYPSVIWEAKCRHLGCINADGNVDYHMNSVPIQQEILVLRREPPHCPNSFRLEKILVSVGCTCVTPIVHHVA
# test: SPR (BIAcore T200), IL-17A coupled to CM5 chip, single-cycle kinetics
Express your answer in s⁻¹, writing the number without its unit.

Fill in: koff of Family 2 (clone 2.1) (VHH, Human single VH domain; also called VH 2.1.1) VHH: QVQLVESGGGLVQPGGSLRLSCAASGFTFSSYGMGWVRQAPGKGLEWVAKIKQDGSEKDYVDSVKGRFTISRDNAKKSLFLQMNSLRAEDTAVYYCARESIFGIPEDWGQGTLVTVSS is ___
0.00247

Fill in: koff of Family 5 (clone 5.1) (VHH, Human single VH domain) VHH: EVQLVESGGGLVQPGGSLRLSCAASGFTFSSYWMSWVRQAPGKGLEWVANIKQDGSEKYYVDSVKGRFTISRDNAKNSLYLQMNSLRAEDTAVYYCAHGQWPFFDYWGQGTMVTVSS is ___
0.0505

Fill in: koff of Family 4 (clone 4.1) (VHH, Human single VH domain) VHH: QVQLVESGGGLVQPGGSLRLSCAASGFTFSSYWMNWVRQAPGKGLEWVATIKQDGSEKYYVDSVKGRFTISRDNATNSLFLQMNSLRAEDTAVYYCARGDTIFDGAFDIWGQGTMVTVSS is ___
0.00289

Fill in: koff of VH 1.1.1 (clone 1.1 expressed from phagemid vector: with linker residues and His tag) (VHH, Human single VH domain; also called Family 1 (clone 1.1)) VHH: EVQLVESGGGLVQPGGSLRLSCAASGFTFSSYSMYWVRQAPGKGLEWVANIKQDGSEKYYVDSVKGRFTISRDNAKNSLFLQMNSLRAEDTAVYYCAKGEILPLHFDYWGQGTLVTVSS is ___
0.00149
